pIC50: −log10 of the molar value.
So I've got pIC50 readings for BTK (Homo sapiens), take a look.

[[record]]
mol = "COCCN(C/C=C/C(=O)N1CC[C@@H](n2c(C)c(-c3ccc(Oc4ccccc4)cc3)c3c(N)ncnc32)C1)CCOC"
system_tested = "BTK (Homo sapiens)"
experimental_result = "> 7.00"

[[record]]
mol = "COCCN(C)C/C=C/C(=O)N1CC[C@@H](n2c(Cl)c(-c3ccc(Oc4ccccc4)cc3)c3c(N)ncnc32)C1"
system_tested = "BTK (Homo sapiens)"
experimental_result = "> 7.00"

[[record]]
mol = "CN(C)C/C=C/C(=O)N1CC[C@@H](n2c(Cl)c(-c3ccc(Oc4ccccc4)cc3)c3c(N)ncnc32)C1"
system_tested = "BTK (Homo sapiens)"
experimental_result = "> 7.00"

[[record]]
mol = "CC(C)c1c(-c2ccc(Oc3ccccc3)cc2)c2c(N)ncnc2n1[C@@H]1CCN(C(=O)/C=C/CN(C)C2CC2)C1"
system_tested = "BTK (Homo sapiens)"
experimental_result = "6.00 to 7.00"

[[record]]
mol = "Cc1c(-c2ccc(Oc3ccccc3)cc2)c2c(N)ncnc2n1[C@@H]1CCN(C(=O)/C=C/CN(C)[C@H]2CCOC2)C1"
system_tested = "BTK (Homo sapiens)"
experimental_result = "> 7.00"


Query: Query the reported pIC50 for BTK (Homo sapiens); item: CCc1c(-c2ccc(Oc3ccccc3)cc2)c2c(N)ncnc2n1[C@@H]1CCN(C(=O)/C=C/CN(C)C2CC2)C1
Result: 6.00 to 7.00

Query: Query the reported pIC50 for BTK (Homo sapiens); item: Cc1c(-c2ccc(Oc3ccccc3)cc2)c2c(N)ncnc2n1[C@@H]1CCN(C(=O)/C=C/CN(C)C)C1
Result: > 7.00

----------
system_tested: LCK (Homo sapiens, UniProt P06239)
Sequence (P06239 whole entry, species assumed): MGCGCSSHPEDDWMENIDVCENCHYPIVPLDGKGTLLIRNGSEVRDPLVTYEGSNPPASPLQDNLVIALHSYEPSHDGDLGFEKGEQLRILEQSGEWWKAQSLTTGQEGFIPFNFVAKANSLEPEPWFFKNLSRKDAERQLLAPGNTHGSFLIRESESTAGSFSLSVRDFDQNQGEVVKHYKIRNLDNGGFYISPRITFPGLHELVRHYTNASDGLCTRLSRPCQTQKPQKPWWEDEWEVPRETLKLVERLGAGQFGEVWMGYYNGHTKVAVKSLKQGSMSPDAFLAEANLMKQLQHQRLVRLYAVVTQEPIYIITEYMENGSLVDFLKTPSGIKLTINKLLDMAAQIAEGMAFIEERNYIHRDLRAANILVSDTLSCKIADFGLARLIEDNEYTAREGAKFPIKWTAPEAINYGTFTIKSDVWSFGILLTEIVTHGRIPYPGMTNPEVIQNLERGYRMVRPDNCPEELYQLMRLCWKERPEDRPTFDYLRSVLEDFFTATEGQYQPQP
pIC50: −log10 of the molar value.
The following compounds are shown together with reported pIC50 values.

Query: Name the reported pIC50 value associated with the compound C=CC(=O)N1CC[C@@H](n2c(F)c(-c3ccc(Cl)cc3)c3c(N)ncnc32)C1 [Compound 42]
Result: 6.00 to 7.00

Query: Name the reported pIC50 value associated with the compound CN(C/C=C/C(=O)N1CC[C@@H](n2c(F)c(-c3ccc(Oc4ccccc4)cc3)c3c(N)ncnc32)C1)C1CC1 [Compound 5]
Result: > 7.00

Query: Name the reported pIC50 value associated with the compound COc1cc(-c2c(Cl)n(-c3cccc(N(C)C(=O)/C=C/CN(C)C4CC4)c3)c3ncnc(N)c23)ccc1C [Compound 36]
Result: 5.00 to 6.00

Query: Name the reported pIC50 value associated with the compound C=CC(=O)N1CC[C@@H](n2c(C)c(-c3ccc(Cl)cc3)c3c(N)ncnc32)C1 [Compound 44]
Result: 6.00 to 7.00

Query: Name the reported pIC50 value associated with the compound CN(C)C/C=C/C(=O)N1CC[C@@H](n2c(Cl)c(-c3ccc(Oc4ccccc4)cc3)c3c(N)ncnc32)C1 [Compound 14]
Result: > 7.00

Query: Name the reported pIC50 value associated with the compound Cc1c(-c2ccc(Oc3ccccc3)cc2)c2c(N)ncnc2n1[C@@H]1CCN(C(=O)/C=C/CN(C)C2CC2)C1 [Compound 12]
Result: > 7.00

Query: Name the reported pIC50 value associated with the compound CN(C)C/C=C/C(=O)N1CC[C@@H](n2c(F)c(-c3ccc(Oc4ccccc4)cc3)c3c(N)ncnc32)C1 [Compound 13]
Result: > 7.00
